- Study system: human orexin 2 receptors (Homo sapiens)
- Sequence (O43614 whole entry): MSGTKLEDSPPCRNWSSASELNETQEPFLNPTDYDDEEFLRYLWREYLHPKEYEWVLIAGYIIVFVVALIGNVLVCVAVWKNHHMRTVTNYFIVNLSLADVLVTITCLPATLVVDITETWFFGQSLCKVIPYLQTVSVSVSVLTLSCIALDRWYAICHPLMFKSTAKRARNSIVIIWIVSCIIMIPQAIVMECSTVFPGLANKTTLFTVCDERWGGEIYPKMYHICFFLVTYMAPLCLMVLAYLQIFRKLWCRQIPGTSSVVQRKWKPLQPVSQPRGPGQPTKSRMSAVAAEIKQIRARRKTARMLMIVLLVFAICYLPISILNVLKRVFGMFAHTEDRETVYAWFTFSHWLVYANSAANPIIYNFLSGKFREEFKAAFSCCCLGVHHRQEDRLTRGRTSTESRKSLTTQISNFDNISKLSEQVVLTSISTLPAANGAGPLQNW
- Assay procedure: Calcium accumulation in cells (FLIPR), hOx2R
- Protocol conditions: cells expressing human orexin 2 receptor; inhibition of orexin A-induced calcium accumulation; Cheng and Prusoff correction
Field: label. Allowed values: true (1) (Ki < 30 nM) or false (0) (Ki >= 30 nM).

Cc1cncc(N2CCC3(CCCN(Cc4c[nH]c5ccccc45)C3=O)CC2)n1 [Example 11]	true (1)

Enquiry: Quick check: does COc1cncc(N2CCC3(CCCC(=O)N3Cc3c[nH]c4ccccc34)CC2)n1 [Example 55] have Ki under 30 nM?
Return: false (0)

Enquiry: Quick check: does Cc1cncc(N2CCC3(CCCC(=O)N3Cc3cccc4[nH]ccc34)CC2)n1 [Example 41] have Ki under 30 nM?
Return: true (1)

Enquiry: Quick check: does Cc1cc(N2CCC3(CCCN(Cc4c[nH]c5ccccc45)C3=O)CC2)nc(C)n1 [Example 71] have Ki under 30 nM?
Return: false (0)

Enquiry: Quick check: does Cc1cc(C#N)nc(N2CCC3(CCCN(Cc4cccc(-c5ncc(C)o5)c4)C3=O)CC2)n1 [Example 37] have Ki under 30 nM?
Return: false (0)

Enquiry: Quick check: does COc1cc(C)nc(N2CCC3(CCCN(Cc4c[nH]c5ccccc45)C3=O)CC2)n1 [Example 4] have Ki under 30 nM?
Return: true (1)

Enquiry: Quick check: does Cc1cc(C)nc(N2CCC3(CCCN(Cc4c[nH]c5c(C)cccc45)C3=O)CC2)n1 [Example 103] have Ki under 30 nM?
Return: true (1)

Enquiry: Quick check: does O=C1N(Cc2c[nH]c3ccccc23)CCCC12CCN(c1ccnc(Cl)n1)CC2 [Example 48] have Ki under 30 nM?
Return: false (0)

Enquiry: Quick check: does CCn1cc(CN2CCCC3(CCN(c4nc(C)cc(C)n4)CC3)C2=O)c2ccccc21 [Example 54] have Ki under 30 nM?
Return: false (0)

Enquiry: Quick check: does COc1ccc(N2CCC3(CCCN(Cc4c[nH]c5ccccc45)C3=O)CC2)cc1OC [Example 59] have Ki under 30 nM?
Return: false (0)

Enquiry: Quick check: does Cc1ccnc(N2CCC3(CCCC(=O)N3Cc3cccc4[nH]ccc34)CC2)n1 [Example 42] have Ki under 30 nM?
Return: true (1)

Enquiry: Quick check: does Cc1ccnc(N2CCC3(CCCC(=O)N3Cc3ccccc3-c3nc(C)no3)CC2)n1 [Example 99] have Ki under 30 nM?
Return: false (0)

###

- Study system: human orexin 1 receptors (Homo sapiens, UniProt O43613)
- Sequence (O43613 whole entry): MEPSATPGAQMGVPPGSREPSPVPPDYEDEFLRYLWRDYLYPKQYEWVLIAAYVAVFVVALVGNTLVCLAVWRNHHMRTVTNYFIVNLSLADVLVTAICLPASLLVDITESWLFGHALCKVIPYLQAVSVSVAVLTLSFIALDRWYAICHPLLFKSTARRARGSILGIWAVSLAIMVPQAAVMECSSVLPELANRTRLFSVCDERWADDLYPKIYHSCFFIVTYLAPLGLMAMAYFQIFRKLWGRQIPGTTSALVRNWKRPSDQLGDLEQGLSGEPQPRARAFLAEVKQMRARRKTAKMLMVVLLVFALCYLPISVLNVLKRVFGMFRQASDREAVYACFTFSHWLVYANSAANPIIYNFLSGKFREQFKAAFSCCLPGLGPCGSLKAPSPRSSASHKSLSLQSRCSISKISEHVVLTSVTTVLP
- Assay procedure: Calcium accumulation in cells (FLIPR), hOx1R
- Protocol conditions: read-out: FLIPR hOx1R % inhibition value
Measured attribute: inhibition at 10 µM
Give your result as the value with the unit written after it.

Some solved cases for reference:
Cc1cc(N2CCC3(CCCN(Cc4c[nH]c5ccccc45)C3=O)CC2)cc(C)n1 [Example 63]	16%
COc1cncc(N2CCC3(CCCN(Cc4c[nH]c5ncccc45)C3=O)CC2)n1 [Example 8]	31%
Cc1ccnc(N2CCC3(CCCC(=O)N3Cc3cccc4[nH]ccc34)CC2)n1 [Example 42]	34%

Note to self: inhibition at 10 µM recorded for N#Cc1ccnc(N2CCC3(CCCN(Cc4c[nH]c5ccccc45)C3=O)CC2)n1 [Example 80] was 41%

###

Quick record of pKd values for human orexin 1 receptors (Homo sapiens, UniProt O43613).
The read-out pKd is expressed as -log10 of concentration in moles per litre.

Some solved cases for reference:
COc1cncc(N2CCC3(CCCC(=O)N3Cc3cccc4[nH]ccc34)CC2)n1 [Example 43]	5.73
COc1ccnc(N2CCC3(CCCN(Cc4c[nH]c5ccccc45)C3=O)CC2)n1 [Example 13]	6.03
Cc1cncc(N2CCC3(CCCC(=O)N3Cc3cccc4[nH]ccc34)CC2)n1 [Example 41]	5.55
COc1ccnc(N2CCC3(CCCN(Cc4ccccc4-c4nc(C)no4)C3=O)CC2)n1 [Example 114]	5.67
Cc1cc(C)nc(N2CCC3(CCCN(Cc4ccccc4-c4ncco4)C3=O)CC2)n1 [Example 93]	5.38

Note to self: pKd of Cc1cc(C)nc(N2CCC3(CCCN(Cc4cccc(-c5ncccn5)c4)C3=O)CC2)n1 [Example 31] with human orexin 1 receptors (Homo sapiens, UniProt O43613) was 5.42

Note to self: pKd of Cc1cc(C)nc(N2CCC3(CCCN(Cc4ccccc4-c4ccco4)C3=O)CC2)n1 [Example 15] with human orexin 1 receptors (Homo sapiens, UniProt O43613) was 5.55

Note to self: pKd of N#Cc1ccnc(N2CCC3(CCCN(Cc4c[nH]c5ccccc45)C3=O)CC2)n1 [Example 80] with human orexin 1 receptors (Homo sapiens, UniProt O43613) was 5.11

Note to self: pKd of COCc1ccc2[nH]cc(CN3CCCC4(CCN(c5nc(C)cc(C)n5)CC4)C3=O)c2c1 [Example 116] with human orexin 1 receptors (Homo sapiens, UniProt O43613) was 7.03

Note to self: pKd of Cc1cnc(-c2cccc(CN3CCCC4(CCN(c5cc(C#N)ccn5)CC4)C3=O)c2)o1 [Example 40] with human orexin 1 receptors (Homo sapiens, UniProt O43613) was 6.48

Note to self: pKd of N#Cc1ccnc(N2CCC3(CCCN(Cc4cccc(-c5ncccn5)c4)C3=O)CC2)n1 [Example 33] with human orexin 1 receptors (Homo sapiens, UniProt O43613) was 6.13

Note to self: pKd of Cc1cc(C)nc(N2CCC3(CCCN(Cc4nc(C)sc4-c4ccccc4)C3=O)CC2)n1 [Example 109] with human orexin 1 receptors (Homo sapiens, UniProt O43613) was 5.59

Note to self: pKd of COc1cncc(-c2nn(C)nc2CN2CCCC3(CCN(c4nc(C)cc(C)n4)CC3)C2=O)c1 [Example 121] with human orexin 1 receptors (Homo sapiens, UniProt O43613) was 6.71

Note to self: pKd of COCc1cccc(-c2oc(C)nc2CN2CCCC3(CCN(c4nc(C)cc(C)n4)CC3)C2=O)c1 [Example 124] with human orexin 1 receptors (Homo sapiens, UniProt O43613) was 6.43

Note to self: pKd of Cc1ccnc(N2CCC3(CCCN(Cc4c[nH]c5ccccc45)C3=O)CC2)n1 [Example 12] with human orexin 1 receptors (Homo sapiens, UniProt O43613) was 5.93

Note to self: pKd of Cc1cc(C)nc(N2CCC3(CCCN(Cc4nc(C)oc4-c4ccccc4)C3=O)CC2)n1 [Example 108] with human orexin 1 receptors (Homo sapiens, UniProt O43613) was 6.07

Note to self: pKd of Cc1ccnc(N2CCC3(CCCN(Cc4cccc(-c5ncc(C)o5)c4)C3=O)CC2)n1 [Example 38] with human orexin 1 receptors (Homo sapiens, UniProt O43613) was 5.92

Note to self: pKd of O=C1CCCC2(CCN(c3cncc(Cl)n3)CC2)N1Cc1cccc2[nH]ccc12 [Example 44] with human orexin 1 receptors (Homo sapiens, UniProt O43613) was 5.24

Note to self: pKd of N#Cc1ccnc(N2CCC3(CCCN(Cc4cccc(-c5ncccn5)c4)C3=O)CC2)c1 [Example 35] with human orexin 1 receptors (Homo sapiens, UniProt O43613) was 6.40

Note to self: pKd of Cc1cc(C)nc(N2CCC3(CCCN(Cc4c[nH]c5ccccc45)C3=O)CC2)n1 [Example 5] with human orexin 1 receptors (Homo sapiens, UniProt O43613) was 6.02

Note to self: pKd of COc1cc(OC)nc(N2CCC3(CCCN(Cc4c[nH]c5ccccc45)C3=O)CC2)n1 [Example 88] with human orexin 1 receptors (Homo sapiens, UniProt O43613) was 5.30

Note to self: pKd of N#Cc1cccc(N2CCC3(CCCN(Cc4cccc(-c5ncccn5)c4)C3=O)CC2)n1 [Example 34] with human orexin 1 receptors (Homo sapiens, UniProt O43613) was 5.64

Note to self: pKd of O=C1N(Cc2c[nH]c3ccccc23)CCCC12CCN(c1nccc(Cl)n1)CC2 [Example 51] with human orexin 1 receptors (Homo sapiens, UniProt O43613) was 5.32

Note to self: pKd of COCc1cccc(-c2ocnc2CN2CCCC3(CCN(c4nc(C)cc(C)n4)CC3)C2=O)c1 [Example 123] with human orexin 1 receptors (Homo sapiens, UniProt O43613) was 5.49

Note to self: pKd of Cc1cnc(-c2cccc(CN3CCCC4(CCN(c5cccc(C#N)n5)CC4)C3=O)c2)o1 [Example 39] with human orexin 1 receptors (Homo sapiens, UniProt O43613) was 5.84

Note to self: pKd of Cc1cc(C)nc(N2CCC3(CCCC(=O)N3Cc3cccc4[nH]ccc34)CC2)n1 [Example 3] with human orexin 1 receptors (Homo sapiens, UniProt O43613) was 6.32

Note to self: pKd of Cc1cc(C#N)cc(N2CCC3(CCCN(Cc4cccc(-c5ncccn5)c4)C3=O)CC2)n1 [Example 28] with human orexin 1 receptors (Homo sapiens, UniProt O43613) was 5.29

Note to self: pKd of Cc1cc(C)nc(N2CCC3(CCCN(Cc4c[nH]c5ccc(-n6cccn6)cc45)C3=O)CC2)n1 [Example 117] with human orexin 1 receptors (Homo sapiens, UniProt O43613) was 5.99
